Molecular target: T1, ZIKV-VLP (Native Antigen Inc.) (Zika virus)
T1 construct: also called Zika VLP; ZVLP
Assay: BLI (Octet), supernatant IgG captured on Protein A biosensor, ZIKV-VLP 3.3 µg/mL in solution, 1:1 model
OBSERVATION_TYPE: koff

BINDER | OBSERVATION_TYPE | RESULT
anti-ZIKV antibody 78-2 (antibody, V domains shown, also called clone 78-2) VH: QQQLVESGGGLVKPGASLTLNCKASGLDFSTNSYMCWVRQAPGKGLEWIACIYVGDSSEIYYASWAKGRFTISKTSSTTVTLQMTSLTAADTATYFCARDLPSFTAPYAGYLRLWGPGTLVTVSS VL: QPVLTQPPSLSASLGTTARLTCTLRTGYNVGDYPLLWLQRVPGRPPRYLLTYHTEEFKHQGSGVHSRFSGSKDASENAGVLSISGLQPEDEANYYCYTVHATESSLHYVFGGGTQLTVTG | koff | < 1e-07 s⁻¹
